Catalogue of folding stability dG unfold values
Experiment: folding stability dG unfold (combined trypsin and chymotrypsin); higher = more stable
property-label: folding stability dG unfold

INSERT INTO assay_data (chain, result) VALUES
  ('SAGGSAGGSAGGKKIKIVKVEPGKVKFSLGKKGKNIPGFEKEVKVEVYEIETDLEPLLNSAGGSAGGSAGGS [r10_654_TrMRF]', '< -1 kcal/mol'),
  ('SAGGSAGGPRRISLMYKFSPDDGEMEPPSIEDLAKKFFPGAEPKNIDIEHNPNNGYMQVEIPIKSAGGSAGG [r6_81_TrROS]', '< -1 kcal/mol'),
  ('SAGGIMFDSPEEAEELADNGRIKPVNRGKQKHKDNGKEREHEMYMVKIKDPEDNKPVQVMIPADQIRSAGGS [r16_271_TrROS]', '< -1 kcal/mol');

----------
// folding stability dG unfold lookup, one value per entry
Test: folding stability dG unfold from chymotrypsin proteolysis; higher = more stable
property-label: folding stability dG unfold

INSERT INTO assay_data (chain, result) VALUES
  ('SAGGSAGGSDYEYENEKDPDGQTKMKMRPKPPPVTVEVLIKLPNGLYFPIEITIYGNHITISISAGGSAGGS [r12_784_TrROS]', '2.52 kcal/mol'),
  ('SAGEEIEELAKKLADELREKYPELEVKVEVVEVTVKTTVVKDKETGKLYTKTEITVKLKVEVVPKEELSAGG [r19_293_TrROS_Hall]', '3.81 kcal/mol'),
  ('SAGGSAGGVEELAKKLNIEVTGNEVTITLKKKKVTVKKLKAPPLKVKKYVDKKTKKIVKTEVELSAGGSAGG [r6_981_TrROS_Hall]', '0.9 kcal/mol'),
  ('SAGGSAGGSKMLLVKVYIEETKEEIVIEVPEGMTLEEIAERLRELGYKIKKIEVYELPPPPEESAGGSAGGS [r12_955_TrROS_Hall]', '4.25 kcal/mol'),
  ('SAMTVTSSVTTQPVPDSSDTVTYTNITVTIGNQTVTYTETVTYSSTDPTLRTVTTLLPDGTTVTTTVPVGSA [r9_897_JUSTAS]', '2.6 kcal/mol'),
  ('SEKPEVTIKIEVEEREDGYLVVRVEVTFPEDPEKVELTLEMSREEAEELAKKLAEELPGVKVKVEIVELPSA [r9_374_TrROS_Hall]', '2.4 kcal/mol'),
  ('SAGGSAGGSAGMKSTVTQPGDTWTITITDPETGEVTTYTLTPAQLGELAASSRPVAVAPGSAGGSAGGSAGG [r11_741_JUSTAS]', '1.5 kcal/mol'),
  ('SAGGNIKIKLKGKIYDLNSNKYYDVEIEYDPKTGKAIITTPKGLKFEINPKEKKAEIPSKNYALEIGSAGGS [r16_743_TrMRF]', '1.37 kcal/mol'),
  ('SAGGSAGGSMKYLVTFPEGGPVPLPDGTSVALAPGAVLELETEEEAEALKALNPGRPVVITPVSAGGSAGGS [r12_987_JUSTAS]', '1.35 kcal/mol'),
  ('SAGEIAEKLGFKVEDVSIQKEDGTYRIVVRFPMDDRPVVIMGDIKVEEKNGKRKIEIDIDIMPLPPDDPSAG [r5_516_TrROS]', '1.57 kcal/mol'),
  ('SAGKKKKIKKIEIEIEKNKDGKEIKVKVKVDGKEYEFTFPKNMSLEELLKKLKEELEKEGLKIEEVEIKSAG [r5_305_TrROS_Hall]', '2.8 kcal/mol'),
  ('SAGGSAGGSAGGKDEKPKPLKVPVIVAPAPEYLELAKKLLPPDKAKVIEKKDDKVVIAFGSAGGSAGGSAGG [r7_670_TrMRF]', '-0.425 kcal/mol'),
  ('SAGGSAGGSAGGMRITIDDWDPDEGPYRVKVTNPDNNKKKTMPYENLEELAKEGPVEIHRSAGGSAGGSAGG [r7_452_TrROS]', '0.368 kcal/mol'),
  ('SAGGSAGGSAGPKPPPVYRLRIVNPDGEVYEFEVPADMSPEEIAKRLGLPPGARVELEKVSAGGSAGGSAGG [r11_340_TrROS_Hall]', '3.35 kcal/mol'),
  ('SAMVLKVEEEPFPPNAKREVKEIRKDPNSDNLFKVKIELEKSPDPSVTSAKVITIPPDGSKKVEEKVLESAG [r14_10_JUSTAS]', '0.47 kcal/mol'),
  ('SAGGSAIPGMPIKEIARALQDKFPPGKPPQIKIRNKNGETKTFEPNKTIDDIPMDGVVEIEIEFRPSAGGSA [r15_50_TrROS]', '0.0124 kcal/mol'),
  ('SAGGSAEEARALAEQVREEVRAAHAPDEVVTVTVELPDGTRVEVTFDAAGEVLSVTIYRPDGTPELSAGGSA [r2_84_JUSTAS]', '2.27 kcal/mol'),
  ('SAGGSAGGEKPVVTRLELVETEEGLVRLRVELPDGELVEERRFPTLEEALAALPPGAKVEIVPLSAGGSAGG [r6_492_TrROS_Hall]', '1.54 kcal/mol');

----------
Parameter folding stability dG unfold: see the listing below.
Experiment: folding stability dG unfold (combined trypsin and chymotrypsin); higher = more stable
property-label: folding stability dG unfold (kcal/mol)

INSERT INTO results (chain, property_label, units, measurement_qualifier, result) VALUES
  ('SAMEKGKALKYREVIPLPDGPVELEIIYFPETGEYVAIIRNPSTGEKVEIPFKFDSLEDAVKAAKDFVASAG [r14_65_TrMRF]', 'folding stability dG unfold', 'kcal/mol', '=', 3.29),
  ('SAGGSAGGKIPPNMEIEPWRFGGKPYFLIRMPNGSYQVFEFKGDKLKIKETIPVPPGDWILIKFSAGGSAGG [r6_476_TrROS]', 'folding stability dG unfold', 'kcal/mol', '=', 1.81),
  ('SLRDIAKEIAEKAGMDPEDVEINVETEPDPKNGKPRLRITVSIEHPNRKYMIKIDFQDGEIEEIMPLEDISA [r9_1219_TrROS]', 'folding stability dG unfold', 'kcal/mol', '=', 1.74),
  ('SAGGSAGGSMKITKIEVEENEDGTLTVRLELEFVDPETKETYRVELEITVSKEELEKLLEALKSAGGSAGGS [r12_691_TrROS_Hall]', 'folding stability dG unfold', 'kcal/mol', '=', 3.9),
  ('SAGGSAGGSAGGLEIELPNARIRIEELEGEPRRIRVRVEFFPPDGGRLSAEAEFDILPDLSAGGSAGGSAGG [r17_184_TrMRF]', 'folding stability dG unfold', 'kcal/mol', '=', 2.57),
  ('SAGGSKVPLDDFDKVTIGVDPKTGKTTASIYYPSDGSTVTFPGKEIPEVLASNPNIKTVETEPLPGSAGGSA [r2_159_JUSTAS]', 'folding stability dG unfold', 'kcal/mol', '<', -1),
  ('SAGGSAGGSAGMEIKYVPEEGLIEVVEKTPKKLPLYSPRYGLEYETKVTTIPPGELDKPLSAGGSAGGSAGG [r11_531_JUSTAS]', 'folding stability dG unfold', 'kcal/mol', '<', -1),
  ('SMITIPYNIQTDPSQAEKLAEEIAKEVEEKYGLKVVGVELVEWVPAPDGSESSVKVEIKIEAPDPKNILLSA [r9_302_JUSTAS]', 'folding stability dG unfold', 'kcal/mol', '=', 0.705),
  ('SAGGSAGGSAGVPSLEEVLAELEANPNSDAVVELPDGTRVRIRVERLPGGELRVEREEVLSAGGSAGGSAGG [r11_300_JUSTAS]', 'folding stability dG unfold', 'kcal/mol', '=', 1.6),
  ('SAGGHHMTIETFEEPDKLTVVVDGDDPEATREYLLQKVKEESSRKPVKVTFTEDPNGKLTITFDLKEESAGG [r13_158_JUSTAS]', 'folding stability dG unfold', 'kcal/mol', '=', -0.17),
  ('SAGELTAEEIAERLRKLLEELGIEEVEVEVEEVEVEEEEEPVEEEEEEELSEEERERLRRERLEEEGLLSAG [r5_9_TrROS_Hall]', 'folding stability dG unfold', 'kcal/mol', '=', 1.92),
  ('SAGGSAGGSAGDKNGKPPPKIEIVPIRMSFRFPELGWWIEIDIYVIKDPAIMISISLYPYSAGGSAGGSAGG [r11_883_TrROS]', 'folding stability dG unfold', 'kcal/mol', '=', 4.91),
  ('SAGGMPVRVLITYESGEIPVTIPVDPNKVVEAEVELEDKTVKITVDPKAKTIKVDAPPSFKFEVLDPSAGGS [r16_761_JUSTAS]', 'folding stability dG unfold', 'kcal/mol', '=', 0.277),
  ('SKKKKTIVIELTKDELKELLKKLKVEEGDEVEIFVRNKDGSIYKLTIKNGKITKIEPFKGVPNKVVIVIKSA [r9_849_TrROS_Hall]', 'folding stability dG unfold', 'kcal/mol', '=', 3.07),
  ('SAGGSAGGSMKRLPDGNLVVKLNNGSTWSVITIPVSPDESEEEIKQRLKELFGPNYPEYDISESAGGSAGGS [r12_300_JUSTAS]', 'folding stability dG unfold', 'kcal/mol', '=', 1.04),
  ('SAGGDPNTARVVVLTGHPDVITPEQIRTLLENLGADEIKSVEVFTTPTSRVVRFVDSNGAPTVIFVPSAGGS [r8_86_TrMRF]', 'folding stability dG unfold', 'kcal/mol', '=', 1.88);
